Parameter: apparent KD of MS2 coat protein. Scope: all listed entries.
Tested on: MS2 coat protein
Test: apparent KD of MS2 coat protein, switch OFF state (with FMN for OFF switches, without FMN for ON switches); designed switch direction (-1 OFF switch, 1 ON switch): -1; higher = weaker reporter binding
Conditions: FMN input: 0 or 200 uM; Eterna round: R93 (includes R88 designs)
# number only, unit nM dropped from output

# Sequence Content, Measurement Kind, Readout Value
records = [
    ("AUCAUGUAAGGAUAUUUAAGAAAAGAAAAGAAAGAAAAGAAAAAGAAGGUACAUGAGGAUCACCCAUGUAAGAA [EteRNA is fun!]", "apparent KD of MS2 coat protein", 18.9),
]

Fill in: apparent KD of MS2 coat protein of AGCUAGUCAGGAUAUACGAGAAUGACAAAAGACGUGAAGGGACAUGAGGAUCACCCAUGUAGAAGGGACUAGCA [Diamond 24] is ___
117

Fill in: apparent KD of MS2 coat protein of CUCAUGUCAGGAUAUCAGUAGUAAAAAAAAAAAAUUACUACUGAGAAGGGACAUGAGGAUCACCCAUGUACCUU [EX4 302: Super Stable 2] is ___
29.1

Fill in: apparent KD of MS2 coat protein of AAGAAACAUGAGGAUCACCCAUGUGAGGAUAUCGAAAAGAAAAGAAAAGAAAGAAGAACGAGAAGGCACAAAGG [Neferkare (V) Tereru] is ___
76.2

Fill in: apparent KD of MS2 coat protein of CUCAAGUCAGGAUAUUAAAGAAAAGAAGAGAAAGAAAAGAAUAAGAAGGGACAUGAGGAUCACCCAUGUAAGAA [EteRNA is fun!] is ___
30.9

Fill in: apparent KD of MS2 coat protein of AAAAAGUCAGGAUAUGCGAAGGCGUCUGAUAGACGAGGCUAGCAGAAGGGACAUGAGGAUCACCCAUGUAAAGA [Mat - Exclusion 4 - D82] is ___
51.3

====

Parameter: apparent KD of K4 kissing-loop reporter. Scope: all listed entries.
Tested on: K4 kissing-loop RNA reporter;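 note: bound reporter read as fluorescence of individual clusters on recovered sequencing chips by microscopy, with normalized cluster intensities fitted with a binding model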
Experiment: apparent KD of K4 kissing-loop reporter; higher = weaker reporter binding
Details: Eterna round: R107; input ligand: arginine 13.2 mM
# number only, unit nM dropped from output

# Sequence Content, apparent KD of K4 kissing-loop reporter [nM]
data = [
    ("UAACUCUUGCAGUGAUGUUGCAAGUAAGCUCAGGAUAUCAGGAAACUGAGAAGGGAGCAUCCUGAGCUUCUGCAAGAGCUCAGAA [KL-SSFMN-A4]", 152),
    ("GCCGUACGCAUGGAUACCAGCUAGACCGAGUGAUGUUCAGGUCUGAAUGCCGGUAAUAAGAGCCCUUGGCAGCCAUGCGUACGGC", 262),
]

Fill in: apparent KD of K4 kissing-loop reporter of ACGUAGUUCUAGGAUACCAGCCAAGGAGCGCAGGACAAAAGUCCUGCCGCCAGUGAUGUUGGCCCUUGGCAGCCUAGAACUACGA [Omei KL Theo B Exc B v1] is ___
162

Fill in: apparent KD of K4 kissing-loop reporter of CGCUGGGCGAGUGAUGUUCGCUCACGUGAUACCAGUGCCAUCCAACACCCUUGGCAGCACGCGGGCAGUGAUGUUGUCCUUAGUG [Exclusion Theophylline A GF8] is ___
123

Fill in: apparent KD of K4 kissing-loop reporter of AGUGCCGAGUGUGAUACCAGCUUCAUGCAGUGAUGUUGCACACGAGUGAUGUUCGUCCGAGGCCCUUGGCAGCGCAGUCGCUCGA [Same State Theophylline B Gf 30] is ___
807

Fill in: apparent KD of K4 kissing-loop reporter of UUUUUAUGCAGUGAUGUUGCUAAUAUAACAGAGGAUAUGCAUUAAUGCAGAAGGCUGAAAUACUAUACUUUAAUAUAUUAAAUUU [JR_SSFMNA_Sub015] is ___
132
